Where do these numbers come from? They come from PubChem BioAssay AID1159580.

experimental.protocol: chemical genetic growth profiling, strain panel (AID 1159580);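 also: tested at 20 µM; growth read once vehicle control cultures reached saturation at 30 °C; 1 = growth at the plate median or of vehicle wells; lower values mean less growth of the strain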
condition.summary: S. cerevisiae deletion strains, growth OD, locus YHR094C, strain hxt1, hits give low values
The campaign covered roughly 5,500 compounds. About 2,000 (36%) were called active. Another 18% or so got no clear call; they are omitted. Some of the results follow.

compound	normalized growth
CC12CCC(CC1)C(C)(C)O2	1.02
COC(=O)[C@H]1[C@H]2C[C@@H]3c4[nH]c5cc(OC)ccc5c4CCN3C[C@H]2C[C@@H](OC(=O)c2cc(OC)c(OC)c(OC)c2)[C@@H]1OC	1.02
CC(COc1ccccc1)N(CCCl)Cc1ccccc1 (stereo not given)	1.02
NC(=O)c1cc[n+](CC2=C(C(=O)O)N3C(=O)C(NC(=O)C(c4ccccc4)S(=O)(=O)[O-])C3SC2)cc1 (stereo not given)	0.984
COc1cc(C(=O)O)c(O)c2c1OCO2	1

###

experimental.protocol: chemical genetic growth profiling, strain panel (AID 1159580)
condition.summary: S. cerevisiae deletion strains, growth OD, strain TSCII, hits give low values
Screen size: about 5,500 compounds; about 2,000 (36%) were called active. Inconclusive results (about 18%) are left out. The list shows a part of the results.
Consider the following molecules and their measured normalized growth readings.

molecule	normalized growth
CCOC(=O)CCc1cc(N=Cc2cc(Br)ccc2O)c(O)c(N=Cc2cc(Br)ccc2O)c1	0.96
COc1cc(C(=O)Oc2c(Cl)cc(Cl)cc2C=Nc2cccc(C(F)(F)F)c2)cc(OC)c1OC	0.967
CCCC1c2ccsc2CCN1C(=S)Nc1ccc(Cl)cc1Cl (centres undefined)	0.959
O=C(NCc1ccco1)c1csc(C2COc3ccccc3O2)n1 (centres undefined)	0.92
NC(=NC(=O)c1ccc(Cl)cc1)c1cccs1	0.939
CCOC(=O)NC(=S)NC12CC3CC(CC(C3)C1)C2	0.971
CSc1cccc(N2C(=O)CC(c3c(Cl)cccc3Cl)CC2=O)c1	0.982
Clc1ccc(-c2noc(CSC3=NCCN3)n2)cc1	0.986
Nc1cc(-c2ccc(OC(F)(F)F)cc2)nn1-c1ccc(Cl)c(Cl)c1	1.01
COCCOc1ccccc1NC(=S)SCCSC(=S)Nc1ccccc1OCCOC	0.99
CN(C)/C=C/C(=O)c1ccc(C#Cc2ccccc2)cc1	0.969
OC(c1ccc(C(F)(F)F)cc1)c1cccc(C(F)(F)F)c1 (centres undefined)	0.975
N=C(N)SCc1nc(-c2ccc(Cl)cc2)no1	0.983
COc1cc(N=Cc2cc(Cl)cc(Cl)c2OC(=O)c2cc(OC)c(OC)c(OC)c2)c(OC)cc1Cl	0.96
COc1cc(C(=O)Oc2c(Cl)cc(Cl)cc2C=Nc2ccc([N+](=O)[O-])cc2C#N)cc(OC)c1OC	0.98
COc1cc(N=Cc2cc(Cl)cc(Cl)c2OS(=O)(=O)c2ccc(C)cc2)c(OC)cc1Cl	0.935
CCC1CCC(C)N(C(=S)Nc2ccc(Br)cc2C)C1 (centres undefined)	0.95
O=C1/C(=C/c2c(F)cccc2Cl)Cc2ccccc21	0.962
Cc1nc(C(F)(F)F)c(C(=O)O/N=C(/N)c2ccc(Cl)cc2)s1	0.974

###

Consider the following molecules and their measured normalized growth readings.
experimental.protocol: chemical genetic growth profiling, strain panel (AID 1159580);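 also: tested at 20 µM; growth read once vehicle control cultures reached saturation at 30 °C; 1 = growth at the plate median or of vehicle wells; lower values mean less growth of the strain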
condition.summary: S. cerevisiae deletion strains, growth OD, locus YCL061C, strain MRC1, hits give low values
Among all 5,500 compounds or so, about 2,000 (36%) were called active. Not shown: some 18% with an inconclusive outcome. The list shows a part of the results.

molecule	normalized growth
O=C(NC(=O)c1c(F)cccc1F)Nc1cc(Cl)c(OC(F)(F)C(F)C(F)(F)F)cc1Cl (stereo not given)	0.989
CC[C@]12CCCN3CCc4c(n(c5ccccc45)[C@](O)(C(=O)OC)C1)[C@@H]32	0.986
CCOC(=O)C1=C[C@]2(CC)CCCN3CCc4c(n1c1ccccc41)[C@@H]32	1.02
CC12CCC(CC1)C(C)(C)O2	0.968
C#C[C@]1(O)CCC2C3CCc4cc(OC)ccc4C3CC[C@@]21C (stereo not given in full)	0.937

###

experimental.protocol: chemical genetic growth profiling, strain panel (AID 1159580);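 also: tested at 20 µM; growth read once vehicle control cultures reached saturation at 30 °C; 1 = growth at the plate median or of vehicle wells; lower values mean less growth of the strain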
condition.summary: S. cerevisiae deletion strains, growth OD, locus YHR205W, strain SCH9, hits give low values
In all, about 5,500 compounds went through this assay and about 2,000 (36%) were called active. Not shown: some 18% with an inconclusive outcome. The list shows a part of the results.
Binned normalized growth; ranges: I = under 0.8, II = from 0.8 up to 0.9, III = 0.9 and over

compound	label.class
N/C(=N/OC(=O)c1ccc(Cl)cc1)c1ccc(F)cc1F	I
COc1ccccc1C(C[N+](=O)[O-])c1c(N)n(C)c(=O)n(C)c1=O (stereo not given)	I
O=C(Nc1ccccn1)c1cc(-c2ccccc2)c(C(F)(F)F)s1	II
Cc1cc(C(=O)O/N=C(/N)c2ccc([N+](=O)[O-])o2)no1	I
COc1cc(C(=O)Oc2c(Cl)cc(Cl)cc2C=Nc2ccc([N+](=O)[O-])cc2C#N)cc(OC)c1OC	I
O=C(CO/N=C\c1ccc(Cl)cc1Cl)NNC(=S)Nc1cc(Cl)ccc1Cl	III
O=C(Nc1ccc(Cl)cc1Cl)c1cnccc1C(F)(F)F	III
COc1cc(Cl)c(NS(=O)(=O)c2cc(Br)c(Br)s2)c(OC)c1	III
O=C1/C(=C/c2c(F)cccc2Cl)Cc2ccccc21	II
COc1cc(N=Cc2cc(Cl)cc(Cl)c2OS(=O)(=O)c2ccc(C)cc2)c(OC)cc1Cl	II
CN(C)/C=C/C(=O)c1ccc(C#Cc2ccccc2)cc1	III
COCCOc1ccccc1NC(=S)SCCSC(=S)Nc1ccccc1OCCOC	III
CC(C)(O)C#Cc1ccc(/C=N\Nc2c(Cl)cc(Cl)cc2Cl)cc1	II
N#CC1=C(N)C(C#N)(C#N)C2(CCCCC2)C2CCCC=C12 (stereo not given)	III
CCCCCc1ccc(S(=O)(=O)Nc2ccc3c(c2)C(=O)OC3)cc1	III
Nc1cc(-c2ccc(OC(F)(F)F)cc2)nn1-c1ccc(Cl)c(Cl)c1	I
CCC1CCC(C)N(C(=S)Nc2ccc(Br)cc2C)C1 (stereo not given)	III

###

experimental.protocol: chemical genetic growth profiling, strain panel (AID 1159580);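 also: tested at 20 µM; growth read once vehicle control cultures reached saturation at 30 °C; 1 = growth at the plate median or of vehicle wells; lower values mean less growth of the strain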
condition.summary: S. cerevisiae deletion strains, growth OD, locus YHR013C, strain ard1, hits give low values
Hit rate of the full screen: of about 5,500 compounds, about 2,000 (36%) were called active. Another 18% or so got no clear call; they are omitted. Some of the results follow.
result.type: normalized growth

compound	result.type	observed.measurement
COc1ccc(/C=C/C(=O)c2ccc(O)cc2O)cc1	normalized growth	0.352
CC[C@]12CCCN3CCc4c(n(c5ccccc45)[C@](O)(C(=O)OC)C1)[C@@H]32	normalized growth	0.953
CCOP(=S)(OCC)Oc1ccc2c(C)c(Cl)c(=O)oc2c1	normalized growth	0.968
COc1cc(/C=C/C(=O)O)cc(OC)c1OC	normalized growth	0.967
CC1(C)CC2C1CCC1(C)OC2(C)CCC1O (stereo unspecified)	normalized growth	1.06
CCCN(CCC)CCc1cccc2c1CC(=O)N2	normalized growth	0.94
COc1ccc(C=CC(=O)c2ccc(O)cc2O)cc1OC	normalized growth	0.842
CC[C@@H](C(=O)[C@@H](C)[C@@H](O)[C@H](C)[C@@H]1O[C@@H]([C@@H](CC)C(=O)O)CC[C@@H]1C)[C@H]1OC2(C=C[C@@H](O)[C@]3(CC[C@@](C)([C@H]4CC[C@](O)(CC)[C@H](C)O4)O3)O2)[C@H](C)C[C@@H]1C (stereo partly specified)	normalized growth	1.07
C=CC1=C(C)/C(=C/c2[nH]c(Cc3[nH]c(/C=C4\NC(=O)C(C)=C4C=C)c(C)c3CCC(=O)O)c(CCC(=O)O)c2C)NC1=O	normalized growth	0.97
CC[C@]12CCCN3CCc4c(n(c5ccccc45)C(=O)C1)[C@@H]32	normalized growth	0.98
c1ccc2[nH]c(-c3cscn3)nc2c1	normalized growth	0.922
C[C@H](COc1ccccc1)N[C@H](C)[C@H](O)c1ccc(O)cc1	normalized growth	0.969
COc1cc(/C=C/C(=O)O)ccc1O	normalized growth	0.996
COc1ccc(-c2cc(C(F)F)nn2-c2ccc(S(N)(=O)=O)cc2)cc1F	normalized growth	1.06
CC(=O)O[C@H]1C[C@@H](OC(C)=O)C(C)(C)C2C[C@@H](OC(C)=O)[C@]3(C)C(CC[C@@]4(C)[C@H](c5ccoc5)C(=O)[C@H]5O[C@]543)[C@]21C (stereo partly specified)	normalized growth	1.01
CC1(C)O[C@@H]2CC3C4CCC5=CC(=O)C=C[C@]5(C)C4[C@@H](O)C[C@]3(C)[C@]2(C(=O)CO)O1 (stereo partly specified)	normalized growth	1.02
CCOC(N)=O	normalized growth	0.975
COS(C)(=O)=O	normalized growth	1
CC[C@]1(O)CC2CN(CCc3c([nH]c4ccccc34)[C@@](C(=O)OC)(c3cc4c(cc3OC)N(C=O)[C@H]3[C@@](O)(C(=O)OC)[C@H](OC(C)=O)[C@]5(CC)C=CCN6CC[C@]43[C@@H]65)C2)C1 (stereo partly specified)	normalized growth	1
OC1CCCCC1N1CCC(c2ccccc2)CC1 (stereo unspecified)	normalized growth	0.941
COc1ccc(C[C@H](N)C(=O)N[C@@H]2[C@@H](CO)OC(n3cnc4c(N(C)C)ncnc43)[C@@H]2O)cc1 (stereo partly specified)	normalized growth	0.983
O=C(/C=C/c1ccc(O)c(O)c1)O[C@@H]1C[C@](O)(C(=O)O)C[C@@H](O)[C@H]1O	normalized growth	0.997
CC12CCCC(O)(C1)C1CC(C)(C)C1CC2 (stereo unspecified)	normalized growth	1.01
CO[C@@H]1[C@@H](O[C@@H]2O[C@H](C)[C@@H](O[C@H]3C[C@@](C)(O)[C@H](O)[C@H](C)O3)[C@H](N(C)C)[C@H]2O)[C@@H](CC=O)C[C@@H](C)[C@@H](O[C@H]2CC[C@H](N(C)C)[C@@H](C)O2)/C=C/C=C/C[C@H](C)OC(=O)C[C@H]1O	normalized growth	1.03
c1cc2c(cc1[C@H]1OC[C@H]3[C@@H]1CO[C@H]3c1ccc3c(c1)OCO3)OCO2	normalized growth	0.871
CCOC(=O)C1=C[C@]2(CC)CCCN3CCc4c(n1c1ccccc41)[C@@H]32	normalized growth	1.01
